Entries and their measured ED50 follow.
system: Plasma testosterone concentrations; assay: Testosterone in vivo test; conditions: Rattus norvegicus, 2 h; male rats, oral; LHRH-analogue i.m. after one hour; plasma testosterone two hours after administration; 50% inhibition relative to placebo

Q: Using the record for CC(c1ccc2[nH]c(-c3cccnc3)nc2c1)n1ccnc1 (stereo not drawn) , state its measured ED50.
A: 2.5 mg/kg

Q: Using the record for c1ccc(C(c2ccc3[nH]c(-c4cccnc4)nc3c2)n2ccnc2)cc1 (stereo not drawn) , state its measured ED50.
A: 10 mg/kg

Q: Using the record for CCC(c1ccc2[nH]cnc2c1)n1ccnc1.Cl.Cl (stereo not drawn) , state its measured ED50.
A: 2.5 mg/kg

Q: Using the record for c1ccc(C(c2ccc3[nH]cnc3c2)n2ccnc2)cc1 (stereo not drawn) , state its measured ED50.
A: < 10 mg/kg

Q: Using the record for "Cn1c(O)nc2cc(Cn3ccnc3)ccc21" , state its measured ED50.
A: < 2.5 mg/kg

Q: Using the record for Cc1nc2cc(C(C(C)C)n3ccnc3)ccc2[nH]1 (stereo not drawn) , state its measured ED50.
A: 2.5 mg/kg

Q: Using the record for "COn1c(-c2cccnc2)nc2ccc(Cn3ccnc3)cc21" , state its measured ED50.
A: 2.5 mg/kg

Q: Using the record for "c1cn(Cc2ccc3[nH]c(-c4cscn4)nc3c2)cn1" , state its measured ED50.
A: 2.5 mg/kg

Q: Using the record for "Fc1cccc(-c2nc3cc(Cn4ccnc4)ccc3[nH]2)c1" , state its measured ED50.
A: 2.5 mg/kg

Each recorded value in this set is attributed to patent EP0260744B1.
